# Test system: TGFβ signal
# ASSAY_PROCEDURE: TGFβ signal inhibitory activity, (SBE)4-Luc reporter in A549 cells (Test Examples 1A and 1B)
# Assay type: cell-based, human
# PROTOCOL_CONDITIONS: Homo sapiens, A549; test compound 3 µM; TGFβ-1 2 ng/ml, 4 hr; Table 1A; read-out: TGFβ inhibition rate, %
Listed below: inhibition at 3 µM values for each entry.
Please make sure the unit comes right after the number.

>  <STRUCTURE_AS_SMILES>
CCc1ccc(Oc2ccnc3ccc(OCCO)cc23)c(-c2ncccn2)n1

>  <inhibition at 3 µM>
97%

$$$$
>  <STRUCTURE_AS_SMILES>
COc1cc2nccc(Oc3cc(C)c(C)nc3-c3cccnc3C)c2cc1OC

>  <inhibition at 3 µM>
82%

$$$$
>  <STRUCTURE_AS_SMILES>
Cc1cc(Oc2ccnc3ccncc23)c(-c2ccccn2)nc1C

>  <inhibition at 3 µM>
85%

$$$$
>  <STRUCTURE_AS_SMILES>
COc1ccc2nccc(Oc3cc4cccnc4nc3-c3ccccc3)c2n1

>  <inhibition at 3 µM>
93%

$$$$
>  <STRUCTURE_AS_SMILES>
CCc1ccc(Oc2ccnc3ccc(OCCOC(=O)[C@@H](N)C(C)C)cc23)c(-c2ncccn2)n1

>  <inhibition at 3 µM>
75%

$$$$

Task: Output measured inhibition at 3 µM for this item: Cc1ccc(-c2ccc3nccc(Oc4cc(C)c(C)nc4-c4ccccn4)c3c2)cc1
Result: 60%

Task: Tell me measured inhibition at 3 µM for Cc1ccc(Oc2ccnc3ccc(OCCN4CCOCC4)cc23)c(-c2ncccn2)n1 please.
Result: 54%

Task: Give inhibition at 3 µM for the following compound: Cc1cc(Oc2ccnc3cc(Br)ccc23)c(-c2ccccn2)nc1C
Result: 100%

Task: Tell me inhibition at 3 µM reported for Cc1cc(Oc2ccnc3cc(-c4csc5ccccc45)ccc23)c(-c2ccccn2)nc1C
Result: 49%

Task: Complete the entry with inhibition at 3 µM for CCCNC(=O)NCCOc1ccc2nccc(Oc3ccc(CC)nc3-c3ccccn3)c2c1
Result: 97%

Task: Identify measured inhibition at 3 µM associated with Cc1cc(Oc2ccnc3ccc(-c4ncccn4)cc23)c(-c2ccccn2)nc1C
Result: 97%

----------
# System: TGFβ signal
# ASSAY_PROCEDURE: TGFβ signal inhibitory activity, (SBE)4-Luc reporter in A549 cells (Test Examples 1A and 1B)
# Format: cell-based, human
# PROTOCOL_CONDITIONS: Homo sapiens, A549; 3 µM; compounds of Reference Examples (Test Example 1B); read-out: TGFβ inhibition rate, %
READOUT_LABEL: inhibition at 3 µM (%)
Give your result in % as a bare value.

See these solved cases before continuing.
>  <COMPOUND>
COc1cc2c(Oc3cc(C)c(C)nc3-c3ccccc3)ccnc2cc1OCC(O)CO (stereo not drawn)

>  <inhibition at 3 µM, %>
100

$$$$
>  <COMPOUND>
COc1cc2c(Oc3cc4cccnc4nc3C)ccnc2cc1OCCCO

>  <inhibition at 3 µM, %>
90

$$$$
>  <COMPOUND>
COc1cc2nccc(Oc3cc4ccccc4nc3C)c2cc1OCC(O)CO (stereo not drawn)

>  <inhibition at 3 µM, %>
98

$$$$
>  <COMPOUND>
COc1cc2c(Oc3cc4ccccc4nc3C)ccnc2cc1OCCCN1C(=O)c2ccccc2C1=O

>  <inhibition at 3 µM, %>
50

$$$$
>  <COMPOUND>
CCCOC(=O)c1cc2ccccc2cc1Oc1ccnc2cc(OCCCCl)c(OC)cc12

>  <inhibition at 3 µM, %>
19

$$$$

Attention now shifts to the item below.
Task: State its inhibition at 3 µM: CCOC(=O)C(Oc1cc2nccc(Oc3cc4ccccc4nc3C)c2cc1OC)C(=O)OCC
Result: 48

----------
# Test system: TGFβ signal
# ASSAY_PROCEDURE: TGFβ signal inhibitory activity, (SBE)4-Luc reporter in A549 cells (Test Examples 1A and 1B)
# Type: cell-based, human
# PROTOCOL_CONDITIONS: Homo sapiens, A549; test compound 3 µM; Reference Examples, Table 1B; read-out: TGFβ inhibition rate, %
# label = T if inhibition at 3 µM >= 20% else F

>  <MOLECULE>
CCC(=O)c1cc(Cl)ccc1Oc1ccnc2cc(OC)c(OC)cc12

>  <ASSIGNED_LABEL>
T

$$$$
>  <MOLECULE>
COc1cc2nccc(Oc3ccc(C)cc3C(C)=O)c2cc1OC

>  <ASSIGNED_LABEL>
T

$$$$
>  <MOLECULE>
COc1cc2nccc(Oc3c(OC)cccc3C(C)=O)c2cc1OC

>  <ASSIGNED_LABEL>
F

$$$$
>  <MOLECULE>
COc1cc2c(Oc3ccc(C)cc3C(=O)c3ccccc3)ccnc2cc1OCCCCNCCO

>  <ASSIGNED_LABEL>
T

$$$$
>  <MOLECULE>
COc1ccc(C(=O)c2ccc(C)cc2)c(Oc2ccnc3cc(OC)c(OC)cc23)c1

>  <ASSIGNED_LABEL>
T

$$$$
>  <MOLECULE>
CCCCC(CC)COC(=O)c1ccccc1Oc1ccnc2cc(OC)c(OC)cc12 (stereo not shown)

>  <ASSIGNED_LABEL>
F

$$$$
>  <MOLECULE>
COc1cc2nccc(Oc3ccccc3C(C)=O)c2cc1OC

>  <ASSIGNED_LABEL>
F

$$$$
>  <MOLECULE>
COc1cc2c(Oc3ccc(C)cc3C(=O)c3ccccc3)ccnc2cc1OCCCCN1CCC(N2CCCC2)CC1

>  <ASSIGNED_LABEL>
T

$$$$
>  <MOLECULE>
COc1cc2c(Oc3ccc(C)cc3C(=O)c3ccccc3)ccnc2cc1OCCCCN1CCC(CO)CC1

>  <ASSIGNED_LABEL>
T

$$$$
>  <MOLECULE>
COc1cc2nccc(Oc3cccc4ccccc34)c2cc1OC

>  <ASSIGNED_LABEL>
F

$$$$

Task: inhibition at 3 µM >= 20% for CCOC(=O)c1c(C)cccc1Oc1ccnc2cc(OC)c(OC)cc12 ?
Result: T

Task: Decide: inhibition at 3 µM of COc1cc2nccc(Oc3ccc4ncccc4c3)c2cc1OC >= 20%?
Result: T

Task: # bool: inhibition at 3 µM of COc1cc2c(Oc3ccc(C)cc3C(=O)c3ccccc3)ccnc2cc1OCC(O)CN1CCN(C)CC1 (stereo not shown) >= 20%
Result: T

Task: # check: inhibition at 3 µM of CNC(=O)c1cc(OC)ccc1Oc1ccnc2cc(OC)c(OC)cc12 is greater than or equal to 20%
Result: T

Task: Identify whether the reported inhibition at 3 µM of the following molecule is 20% or greater: CCC(=O)c1cc(C(C)(C)C)ccc1Oc1ccnc2cc(OC)c(OC)cc12
Result: F

Task: Textbook exercise: given the entry COc1cc2nccc(Oc3ccc(Cl)cc3C(=O)Nc3ccc(Cl)c(Cl)c3)c2cc1OC , state whether its inhibition at 3 µM is greater than or equal to 20%.
Result: F

Task: Please indicate if the recorded inhibition at 3 µM for COc1cc2c(Oc3ccc(C)cc3C(=O)c3ccccc3)ccnc2cc1OCC(O)Cn1ccnc1 (stereo not shown) meets or exceeds 20%.
Result: T

Task: Please indicate if the recorded inhibition at 3 µM for COc1cc2nccc(Oc3ccc(C)cc3C)c2cc1OC meets or exceeds 20%.
Result: F

----------
Collected inhibition at 3 µM values appear next to each entry.
# Test system: TGFβ signal
# ASSAY_PROCEDURE: TGFβ signal inhibitory activity, (SBE)4-Luc reporter in A549 cells (Test Examples 1A and 1B)
# Assay type: cell-based, human
# PROTOCOL_CONDITIONS: Homo sapiens, A549; test compound 3 µM; Reference Examples, Table 1B; read-out: TGFβ inhibition rate, %

Known inhibition at 3 µM results, listed for orientation:
>  <COMPOUND>
COc1cc2nccc(Oc3cccc(C(=O)c4ccccc4)c3)c2cc1OC

>  <inhibition at 3 µM>
0%

$$$$
>  <COMPOUND>
COc1ccc(Oc2ccnc3cc(OC(=O)N4CCOCC4)c(OC)cc23)c(C(C)=O)c1

>  <inhibition at 3 µM>
97%

$$$$
>  <COMPOUND>
COc1cc2c(Oc3ccc(C)cc3C(=O)c3ccccc3)ccnc2cc1OCCCCN1CCC(N2CCCCC2)CC1

>  <inhibition at 3 µM>
64%

$$$$

Now look at this one.
Task: Provide inhibition at 3 µM value for the following compound: COc1cc2c(Oc3ccc(C)cc3C(=O)c3ccccc3)ccnc2cc1OCC(O)CN1CCOCC1 (stereo not shown)
Result: 98%

Measured values drawn from patent EP1724268A1 for this set.
